List of log10 of MIC values.
Test system: Trichophyton rubrum
Test: Antimicrobial activity against Trichophyton rubrum MTCC 296 assessed as growth inhibition after 5 days by broth microdilution method
Type: functional
Conditions: MTCC 296, 120 h
Recall that a logarithmic scale is used here: each number is log10 of MIC in µM.

Example results:
O=CCCc1ccccc1 [DIHYDROCINNAMALDEHYDE]    3.57
C(=C\c1ccc2c(c1)OCO2)/C=N/c1nc2ccccc2s1    2.91
C(=C\c1ccc2c(c1)OCO2)/C=N/c1nccs1    2.99
C/C=C/c1cc(OC)c(OC)cc1OC [TRANS-ASARONE]    2.78
NC(=O)N/N=C/C=C/c1ccc2c(c1)OCO2    3.93
COc1cc(OC)c(OC)cc1C=O    2.20

Measured log10 of MIC of O=C/C=C/c1ccc2c(c1)OCO2 : 2.54

So for CC(=O)c1ccc(/N=C/C=C/c2ccc3c(c2)OCO3)cc1 , the logged log10 of MIC turned out to be 3.23

log10 of MIC reading for COc1ccc(/C=C/C=O)cc1 : 2.89

Recorded log10 of MIC (compound C=CCc1ccc2c(c1)OCO2 ): 3.79

Data point: COc1ccc(C=O)cc1 ; log10 of MIC = 2.96

So for CCCCCCCCCCCCOC(=O)/C=C/c1ccccc1 , the logged log10 of MIC turned out to be 2.90

Field log10 of MIC (entry COc1cc(OC)c(OC)cc1/C=C/C=O ) reads 3.95

* * *

Test system: Candida albicans
Experiment: Antimicrobial activity against Candida albicans MTCC 3017 assessed as growth inhibition after 24 hr by broth microdilution method
Assay type: functional
The source made the active and inactive calls. No cut-off for these calls is given here.
readout: MIC

Worked examples, 4 compounds total:
C/C=C/c1ccc2c(c1)OCO2 [ISOSAFROLE]    inactive
Cc1ccc(/C=C/C=O)c([N+](=O)[O-])c1    inactive
COc1ccc(/C=C/C=O)c(Br)c1OC    inactive
CN(C)c1ccc(/C=C/C=O)cc1    inactive

Reported MIC of COc1ccc(/N=C/C=C/c2ccc3c(c2)OCO3)cc1OC : inactive

The recorded MIC for entry CC(C)OC(=O)/C=C/c1ccccc1 equals inactive

Per the records, this compound ( CCOC(=O)/C=C/c1ccc2c(c1)OCO2 ) has MIC equal to inactive

Per the record, NC(=S)N/N=C/C=C/c1ccc2c(c1)OCO2 has MIC of inactive

* * *

Test system: Staphylococcus aureus
Experiment: Antimicrobial activity against Staphylococcus aureus MTCC 3160 assessed as growth inhibition after 24 hr by broth microdilution method
Assay type: functional
Details: MTCC 3160, 24 h
readout: MIC (µM)
Numbers only here, please. The scale is µM.

Some compounds with recorded MIC:
CCOc1ccc2nc(/N=C/C=C/c3ccc4c(c3)OCO4)sc2c1    710
COc1ccc(C=O)cc1    1830
Cc1ccc(/C=C/C=O)c([N+](=O)[O-])c1    10500
C(=C\c1ccc2c(c1)OCO2)/C=N/c1nc2ccccc2s1    200

Considering O=Cc1ccc2c(c1)OCO2 , its MIC with Staphylococcus aureus was recorded as 3330

The compound O=CCCc1ccccc1 [DIHYDROCINNAMALDEHYDE] , when measured on Staphylococcus aureus, yielded MIC of 14900

Value (MIC, Staphylococcus aureus) for record CC(=O)c1ccc(/N=C/C=C/c2ccc3c(c2)OCO3)cc1 = 850

* * *

System: Aspergillus parasiticus
Assay: Antimicrobial activity against Aspergillus parasiticus MTCC 2797 assessed as growth inhibition after 5 days by broth microdilution method
Assay type: functional
Active and inactive are the calls of the source. No cut-off for these calls is given here.
readout: MIC

Clc1ccc2nc(/N=C/C=C/c3ccc4c(c3)OCO4)sc2c1    inactive
COc1ccc(/C=C/C=O)c(Br)c1OC    inactive
NC(=S)N/N=C/C=C/c1ccc2c(c1)OCO2    inactive
NC(=O)N/N=C/C=C/c1ccc2c(c1)OCO2    inactive

Here Cc1ccc(/C=C/C=O)c([N+](=O)[O-])c1 was tested on Aspergillus parasiticus, and its MIC came to inactive

Noted MIC for CN(C)c1ccc(/C=C/C=O)cc1 , tested on Aspergillus parasiticus: inactive

The molecule CCCCCCCCCCCCOC(=O)/C=C/c1ccccc1 , tested on Aspergillus parasiticus, showed MIC of inactive

* * *

Test system: Trichophyton rubrum
Assay: Antimicrobial activity against Trichophyton rubrum MTCC 296 assessed as growth inhibition after 5 days by broth microdilution method
Assay type: functional
Conditions: MTCC 296, 120 h
// map MIC to label using c1 (below 700 µM), c2 (700 µM to below 2000 µM), c3 (2000 µM or more)

Some solved cases for reference:
O=Cc1ccc2c(c1)OCO2    c2
C(=C\c1ccc2c(c1)OCO2)/C=N/c1ccccc1    c2
Clc1ccc2nc(/N=C/C=C/c3ccc4c(c3)OCO4)sc2c1    c2
OC/C=C/c1ccccc1    c2
CCOc1ccc2nc(/N=C/C=C/c3ccc4c(c3)OCO4)sc2c1    c2
C(=C\c1nc2ccccc2[nH]1)/c1ccc2c(c1)OCO2    c1
C/C=C/c1ccc2c(c1)OCO2    c3
Cc1ccc2nc(/N=C/C=C/c3ccc4c(c3)OCO4)sc2c1    c2
COc1ccc(/C=C/C=O)cc1OC    c3
O=C(O)/C=C/c1ccccc1    c1

IN: Into which category would you place O=C/C=C/c1ccccc1 ?
OUT: c1

IN: Which category fits this record: CCOc1ccc(/C=C/C=O)cc1OC
OUT: c3

* * *

Test system: Aspergillus sydowii
Test: Antimicrobial activity against Aspergillus sydowii MTCC 4335 assessed as growth inhibition after 5 days by broth microdilution method
Assay type: functional
Settings: MTCC 4335, 120 h
Kindly apply the following: y if MIC is less than 3000 µM, n in every other case.

C(=C\c1nc2ccccc2[nH]1)/c1ccc2c(c1)OCO2    y
CC(=O)c1ccc(/N=C/C=C/c2ccc3c(c2)OCO3)cc1    y
CCOc1ccc(/C=C/C=O)cc1OC    n

IN: Dear colleague, could you confirm whether MIC of COc1ccc(/N=C/C=C/c2ccc3c(c2)OCO3)cc1OC falls below 3000 µM? Thanks.
OUT: n

IN: For O=C/C=C/c1ccccc1 , is the recorded MIC below the cut-off of 3000 µM?
OUT: n

* * *

Test system: Enterobacter cloacae
Assay: Antimicrobial activity against Enterobacter cloacae MTCC 509 assessed as growth inhibition after 24 hr by broth microdilution method
Assay type: functional
Details: MTCC 509, 24 h
MIC under 2 mM gets Y, anything at or over 2 mM gets N.

Here are 6 molecules together with their reported answers.
CN(C)c1ccc(/C=C/C=O)cc1    N
C(=C\c1ccc2c(c1)OCO2)/C=N/c1ccccc1    Y
COc1cc(OC)c(OC)cc1C=O [ASARALDEHYDE]    N
CCOc1ccc(/C=C/C=O)cc1OC    N
COc1ccc(/C=C/C=O)cc1 [PARA-METHOXY CINNAMALDEHYDE]    N
O=Cc1ccc2c(c1)OCO2 [PIPERONAL]    N

IN: Determine whether this molecule shows MIC lower than 2 mM (ties excluded): C(=C\c1ccc2c(c1)OCO2)/C=N/c1nccs1
OUT: Y

IN: MIC under 2 mM? Item: CC1(C)S[C@@H]2[C@H](NC(=O)[C@H](N)c3ccccc3)C(=O)N2[C@H]1C(=O)O [AMPICILLIN]
OUT: N

* * *

Overview of recorded inhibition for various molecules
Tested on: Radical scavenging activity
Test: Antioxidant activity assessed as inhibition of DPPH radical formation at 2 mg/ml after 30 min by spectrophotometric analysis
Type: functional
State just the number; it will be interpreted in %.

// known answers, use as guide
C(=C\c1ccc2c(c1)OCO2)/C=N/c1nc2ccccc2s1    3.55
NC(=S)N/N=C/C=C/c1ccc2c(c1)OCO2    10.7
Cc1cc(C(C)(C)C)c(O)c(C(C)(C)C)c1    91.6
NC(=O)N/N=C/C=C/c1ccc2c(c1)OCO2    2.37
CC(=O)c1ccc(/N=C/C=C/c2ccc3c(c2)OCO3)cc1    4.49

// below: inhibition requested for another molecule
Measured inhibition of Cc1ccc2nc(/N=C/C=C/c3ccc4c(c3)OCO4)sc2c1 : 3.19

* * *

Tested on: Staphylococcus aureus
Experiment: Antimicrobial activity against Staphylococcus aureus MTCC 3160 assessed as growth inhibition after 24 hr by broth microdilution method
Type: functional
Conditions: MTCC 3160, 24 h
readout: MIC (µM)
State the answer as a number, implicitly in µM.

Examples with their reported MIC follow.
C(=C\c1ccc2c(c1)OCO2)/C=N/c1ccccc1    1990
C(=C\c1nc2ccccc2[nH]1)/c1ccc2c(c1)OCO2    1900
O=C/C=C/c1ccc2c(c1)OCO2    2840

Data point: O=C/C=C/c1ccccc1 [CINNAMALDEHYDE] ; MIC = 1890

// recorded MIC for COc1ccc(/C=C/C=O)cc1 [PARA-METHOXY CINNAMALDEHYDE] : 3080

# MIC of Cc1ccc2nc(/N=C/C=C/c3ccc4c(c3)OCO4)sc2c1 = 380

// MIC lookup, compound = CCOc1ccc(/C=C/C=O)cc1OC , result: 2420
